- TARGET_ENTITY: human insulin receptor (HIR) (human, UniProt P06213 28-1382, limits assumed)
- ASSAY_SUMMARY: 125I-insulin competition, solubilised HIR
Non-standard residues stand in square brackets, D forms with d. No end group written: not given here. Tyr(3-I) = N[C@@H](Cc1ccc(O)c(I)c1)C(=O)O

BINDER	Kd [nM]
SLEEEWAQIECEVYGRGCPSESFYDWFERQLG [S554]	0.0064
SLEQEWAQVECEVYGRGCPSGSLDESFYDWFERQLG [S538]	0.038
SLEEEWAQIQCEVWGR[dN][dC]SESFYDWFERQL (cysteine pairing not given here) [S563]	0.014
SLEEEWAQVECEVYGRGCPS [S547]	49
SLEEEWAQIESEVWGRXESFYDWFERQLG (X17 = βturn (unit not explained)) [S581]	0.012
S440 (not fully specified (bridges); cysteine pairing not given here; also: K16 of chain 1 chemically linked to C-terminus of chain 2 (C-C on a lysine)) peptide 1: ESFYDWFERQLGGGGK peptide 2: EWAWVQCEVYGRGCPS	99
Ac-SIEEEWAQIKCDVWGRGSESFYDWFERQL [S600]	0.0076
S438 (not fully specified (bridges); cysteine pairing not given here; also: K16 of chain 1 chemically linked to C-terminus of chain 2 (C-C on a lysine)) peptide 1: ESFYDWFERQLGGGGK peptide 2: DQEWAWVQCEVYGRGCPS	30
LEEEWAQVECEVYGRGCPSESFYDWFERQL [S536]	0.083
SLEEEWAQIESEVWGRSESFYDWFERQLG [S573]	0.036
LEEEWAQIECEVWGRGCSGSLDESF[Tyr(3-I)]DWFERQLG (not fully specified (bridges); printed as LEEEWAQIECEVWGRGCSGSLDESF-IodoTyr-DWFERQLG; cysteine pairing not given here) [S591]	0.13
Ac-SIEEEWAQIKCDVWGRGPSESFYDWFERQLG [S568]	0.0043
WLDQEWAWVQCEVYGRGCPSGGSGGSGSLDESFYDWFERQLG [S458]	3.2
S437 (not fully specified (bridges); cysteine pairing not given here; also: K16 of chain 1 chemically linked to C-terminus of chain 2 (C-C on a lysine)) peptide 1: ESFYDWFERQLGGGGK peptide 2: LDQEWAWVQCEVYGRGCPS	0.69
SLEEEWAQIEAEVWGRGAPSESFYDWFERQLG [S574]	0.0092
SLEEEWAQIQAEVYGNPNSESFYDWFERQL [S602]	0.031
SLEEEWAQVEAEVYGRGAPSGSLDESFYDWFERQLG [S551]	0.072
SLEEEWAQIECEVWGRGCPKGFYGWFRRRRG [S584]	9.3
GSLDESFYDWFERQLGGGSGGSWLDQEWAWVQCEVYGRGCPS [S459]	0.076
SLEEEWAQIECEVWGRGCSGSLDESFYDWFERQL [S561]	0.015
